Where do these numbers come from? They come from ChEMBL document CHEMBL1155459.

# experimental_target: UniProtKB Q95PM0
# protocol_notes: Inhibition of Trypanosoma brucei rhodesiense rhodesain after 12 hrs by fluorescence spectroscopy-based on-bead assay
# Design: concentration or dose not given beside the values
# conditions: concentration not given here
Peptide text beside a SMILES is read from it.
inhibition: recorded values
Report only the number, with the unit % understood.

Sample records with inhibition:
compound | measured_attribute | test_result
CC[C@H](C)[C@H](NC(=O)[C@H](CCC(N)=O)NC(=O)/C=C/C(=O)NCC(=O)NCC(=O)N[C@@H](Cc1ccccc1)C(=O)O)C(=O)N[C@H](C(=O)N[C@H](C(N)=O)C(C)C)C(C)C (HELM PEPTIDE1{[O=C(/C=C/C(=O)[*:2])NCC(=O)NCC(=O)N[C@@H](Cc1ccccc1)C(=O)O].Q.I.V.V.[am]}$$$$V2.0) | inhibition | 37
CC(C)[C@H](NC(=O)[C@@H](NC(=O)[C@@H](NC(=O)[C@H](CC(N)=O)NC(=O)/C=C/C(=O)N[C@@H](C)C(=O)NCC(=O)N[C@@H](Cc1ccccc1)C(=O)O)c1ccccc1)C(C)C)C(N)=O (HELM PEPTIDE1{[C[C@H](NC(=O)/C=C/C(=O)[*:2])C(=O)NCC(=O)N[C@@H](Cc1ccccc1)C(=O)O].N.[Phg].V.V.[am]}$$$$V2.0) | inhibition | 37

Could you now look at the following compound, please?
# input Request body: readout inhibition, system UniProtKB Q95PM0, query CC(C)[C@H](NC(=O)[C@@H](NC(=O)[C@@H](NC(=O)[C@H](Cc1ccccc1)NC(=O)/C=C/C(=O)NCC(=O)NCC(=O)N[C@@H](Cc1ccccc1)C(=O)O)c1ccccc1)C(C)C)C(N)=O (HELM PEPTIDE1{[O=C(/C=C/C(=O)[*:2])NCC(=O)NCC(=O)N[C@@H](Cc1ccccc1)C(=O)O].F.[Phg].V.V.[am]}$$$$V2.0) . Return the value.
# output 68

---

# experimental_target: Cathepsin B (Homo sapiens)
# protocol_notes: Inhibition of human liver cathepsin B at 100 uM
Square brackets hold non-standard residues; d marks the D form. Peptide text beside a SMILES is read from it. * marks the point of attachment. Fumaroyl(GlyGlyPheOH) = O=C(/C=C/C(=O)*)NCC(=O)NCC(=O)N[C@@H](Cc1ccccc1)C(=O)O; Chg = N[C@H](C(=O)O)C1CCCCC1; Dap = NC[C@H](N)C(=O)O
measured_attribute: inhibition

Sample records with inhibition:
compound	test_result
CC(=O)NC[C@H](NC(=O)/C=C/C(=O)NCC(=O)NCC(=O)N[C@@H](Cc1ccccc1)C(=O)O)C(=O)N[C@H](C(=O)N[C@@H](C)C(=O)N[C@H](C(N)=O)C(C)C)C1CCCCC1 ({Fumaroyl(GlyGlyPheOH)}-[Dap](Ac)[Chg]AV-NH2)	83%
CC(C)C[C@H](NC(=O)[C@H](C)NC(=O)/C=C/C(=O)N[C@@H](C)C(=O)NCC(=O)N[C@@H](Cc1ccccc1)C(=O)O)C(=O)N[C@@H](CC(C)C)C(=O)N[C@H](C(N)=O)C(C)C (HELM PEPTIDE1{[C[C@H](NC(=O)/C=C/C(=O)[*:2])C(=O)NCC(=O)N[C@@H](Cc1ccccc1)C(=O)O].A.L.L.V.[am]}$$$$V2.0)	45%

Could you now look at the following compound, please?
# input Give its inhibition value. Item: CC(C)[C@H](NC(=O)[C@@H](NC(=O)[C@@H](NC(=O)[C@H](CCC(N)=O)NC(=O)/C=C/C(=O)NCC(=O)NCC(=O)N[C@@H](Cc1ccccc1)C(=O)O)C1CCCCC1)C(C)C)C(N)=O (HELM PEPTIDE1{[O=C(/C=C/C(=O)[*:2])NCC(=O)NCC(=O)N[C@@H](Cc1ccccc1)C(=O)O].Q.[O=C([C@@H](N[*:1])C1CCCCC1)[*:2]].V.V.[am]}$$$$V2.0)
# output 81%

---

# experimental_target: Rhodesain (Trypanosoma brucei rhodesiense) (UniProt Q95PM0)
# Sequence (Q95PM0 1-450): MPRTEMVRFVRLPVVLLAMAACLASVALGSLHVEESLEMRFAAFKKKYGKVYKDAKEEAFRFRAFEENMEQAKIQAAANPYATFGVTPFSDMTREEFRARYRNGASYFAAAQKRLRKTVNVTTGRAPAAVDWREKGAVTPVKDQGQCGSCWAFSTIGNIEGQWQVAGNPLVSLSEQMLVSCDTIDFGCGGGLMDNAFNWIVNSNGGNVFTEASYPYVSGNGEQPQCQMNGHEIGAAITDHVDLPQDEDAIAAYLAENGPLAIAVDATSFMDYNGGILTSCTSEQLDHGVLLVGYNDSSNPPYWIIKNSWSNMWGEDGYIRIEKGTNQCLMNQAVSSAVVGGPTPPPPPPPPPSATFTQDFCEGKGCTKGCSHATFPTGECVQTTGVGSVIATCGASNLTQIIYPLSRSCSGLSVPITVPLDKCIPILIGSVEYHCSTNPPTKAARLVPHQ
# protocol_notes: Inhibition of Trypanosoma brucei rhodesiense recombinant rhodesain at 100 uM
Peptide text beside a SMILES is read from it.
measured_attribute: inhibition (%)
Report only the number, with the unit % understood.

compound	inhibition [%]
CC(C)C[C@H](NC(=O)[C@@H](NC(=O)[C@H](CC(N)=O)NC(=O)/C=C/C(=O)NCC(=O)NCC(=O)N[C@@H](Cc1ccccc1)C(=O)O)c1ccccc1)C(=O)N[C@H](C(N)=O)C(C)C (HELM PEPTIDE1{[O=C(/C=C/C(=O)[*:2])NCC(=O)NCC(=O)N[C@@H](Cc1ccccc1)C(=O)O].N.[Phg].L.V.[am]}$$$$V2.0)	26
CC(=O)NC[C@H](NC(=O)/C=C/C(=O)NCC(=O)NCC(=O)N[C@@H](Cc1ccccc1)C(=O)O)C(=O)N[C@@H](CC(C)C)C(=O)N[C@@H](C)C(=O)N[C@H](C(N)=O)C(C)C (HELM PEPTIDE1{[O=C(/C=C/C(=O)[*:2])NCC(=O)NCC(=O)N[C@@H](Cc1ccccc1)C(=O)O].[O=C([C@H](CN[*:3])N[*:1])[*:2]].L.A.V.[am]}|PEPTIDE2{[ac]}$PEPTIDE1,PEPTIDE2,2:R3-1:R2$$$V2.0)	30

Could you now look at the following compound, please?
# input Give its inhibition value. Item: CC(C)C[C@H](NC(=O)[C@H](C)NC(=O)/C=C/C(=O)NCC(=O)NCC(=O)N[C@@H](Cc1ccccc1)C(=O)O)C(=O)N[C@@H](CC(C)C)C(=O)N[C@H](C(N)=O)C(C)C (HELM PEPTIDE1{[O=C(/C=C/C(=O)[*:2])NCC(=O)NCC(=O)N[C@@H](Cc1ccccc1)C(=O)O].A.L.L.V.[am]}$$$$V2.0)
# output 99

---

# experimental_target: UniProt P07858
# protocol_notes: Inhibition of human liver cathepsin B at 100 uM
Peptide text beside a SMILES is read from it.
measured_attribute: inhibition

# input Give its inhibition value. Item: CC(C)C[C@H](NC(=O)[C@@H](NC(=O)[C@H](CC(N)=O)NC(=O)/C=C/C(=O)NCC(=O)NCC(=O)N[C@@H](Cc1ccccc1)C(=O)O)c1ccccc1)C(=O)N[C@H](C(N)=O)C(C)C (HELM PEPTIDE1{[O=C(/C=C/C(=O)[*:2])NCC(=O)NCC(=O)N[C@@H](Cc1ccccc1)C(=O)O].N.[Phg].L.V.[am]}$$$$V2.0)
# output 13%

---

inhibition: recorded values
# experimental_target: Rhodesain (Trypanosoma brucei rhodesiense)
# protocol_notes: Inhibition of Trypanosoma brucei rhodesiense rhodesain after 12 hrs by fluorescence spectroscopy-based on-bead assay
# Design: concentration or dose not given beside the values
# conditions: concentration not given here
Peptide text beside a SMILES is read from it.
Report only the number, with the unit % understood.

molecule | inhibition [%]
CC(C)C[C@H](NC(=O)[C@@H](NC(=O)[C@H](Cc1ccccc1)NC(=O)/C=C/C(=O)N[C@@H](C)C(=O)NCC(=O)N[C@@H](Cc1ccccc1)C(=O)O)c1ccccc1)C(=O)N[C@H](C(N)=O)C(C)C (HELM PEPTIDE1{[C[C@H](NC(=O)/C=C/C(=O)[*:2])C(=O)NCC(=O)N[C@@H](Cc1ccccc1)C(=O)O].F.[Phg].L.V.[am]}$$$$V2.0) | 68

# input Give its inhibition value. Item: CC[C@H](C)[C@H](NC(=O)[C@H](Cc1ccccc1)NC(=O)/C=C/C(=O)NCC(=O)NCC(=O)N[C@@H](Cc1ccccc1)C(=O)O)C(=O)N[C@@H](C)C(=O)N[C@H](C(N)=O)C(C)C (HELM PEPTIDE1{[O=C(/C=C/C(=O)[*:2])NCC(=O)NCC(=O)N[C@@H](Cc1ccccc1)C(=O)O].F.I.A.V.[am]}$$$$V2.0)
# output 30

---

# experimental_target: Cathepsin B (Homo sapiens)
# protocol_notes: Inhibition of human liver cathepsin B at 100 uM
Peptide text beside a SMILES is read from it.
inhibition: recorded values
Report only the number, with the unit % understood.

compound | inhibition [%]
CC(C)[C@H](NC(=O)[C@H](C)NC(=O)[C@@H](NC(=O)[C@H](CC(N)=O)NC(=O)/C=C/C(=O)NCC(=O)NCC(=O)N[C@@H](Cc1ccccc1)C(=O)O)C1CCCCC1)C(N)=O (HELM PEPTIDE1{[O=C(/C=C/C(=O)[*:2])NCC(=O)NCC(=O)N[C@@H](Cc1ccccc1)C(=O)O].N.[O=C([C@@H](N[*:1])C1CCCCC1)[*:2]].A.V.[am]}$$$$V2.0) | 78

Could you now look at the following compound, please?
# input Give its inhibition value. Item: CC(C)C[C@H](NC(=O)[C@H](CC(N)=O)NC(=O)/C=C/C(=O)NCC(=O)NCC(=O)N[C@@H](Cc1ccccc1)C(=O)O)C(=O)N[C@@H](C)C(=O)N[C@H](C(N)=O)C(C)C (HELM PEPTIDE1{[O=C(/C=C/C(=O)[*:2])NCC(=O)NCC(=O)N[C@@H](Cc1ccccc1)C(=O)O].N.L.A.V.[am]}$$$$V2.0)
# output 17
